assay: In vivo inhibitory activity against Staphylococcus aureus MB2985 (methicillin-susceptible) in mouse systemic infection model; assay type: functional
Item-by-item account of MIC
Give just the numeric value; µg/mL need not be written.

Study these solved cases before continuing.
C[C@@H](O)[C@H]1C(=O)N2C(C(=O)O)=C(c3cc(C(=N)N)c4oc5ccccc5c4c3)C[C@H]12 | 0.031
C[C@@H](O)[C@H]1C(=O)N2C(C(=O)O)=C(SCCNC=N)C[C@H]12 [IMIPENEM ANHYDROUS] | 0.01

Give a short answer stating reported MIC for `C[C@@H](O)[C@H]1C(=O)N2C(C(=O)O)=C(c3cc(C(N)=O)c4oc5ccccc5c4c3)C[C@H]12` .
0.031

---

assay: Compound was tested in vitro for its activity against Methicillin-Resistant Coagulase Negative Staphylococci(MRCNS 9); type: functional; conditions: Staphylococcus
Item-by-item account of MIC50
Give just the numeric value; µg/mL need not be written.

C[C@@H](O)[C@H]1C(=O)N2C(C(=O)O)=C(c3cc(C4=NCCN4)c4oc5ccccc5c4c3)C[C@H]12 | 1
CN[C@H](CC(C)C)C(=O)N[C@H]1C(=O)N[C@@H](CC(N)=O)C(=O)N[C@H]2C(=O)N[C@H]3C(=O)N[C@H](C(=O)N[C@H](C(=O)O)c4cc(O)cc(O)c4-c4cc3ccc4O)[C@H](O)c3ccc(c(Cl)c3)Oc3cc2cc(c3O[C@@H]2O[C@H](CO)[C@@H](O)[C@H](O)[C@H]2O[C@H]2C[C@](C)(N)[C@H](O)[C@H](C)O2)Oc2ccc(cc2Cl)[C@H]1O [VANCOMYCIN] | 4
C[C@@H](O)[C@H]1C(=O)N2C(C(=O)O)=C(c3cc(C(N)=O)c4oc5ccccc5c4c3)C[C@H]12 | 2
C[C@@H](O)[C@H]1C(=O)N2C(C(=O)O)=C(c3cc(C#N)c4oc5ccccc5c4c3)C[C@H]12 | 1
C[C@@H](O)[C@H]1C(=O)N2C(C(=O)O)=C(c3cc(C4=NCCN4C)c4oc5ccccc5c4c3)C[C@H]12 | 2
C[C@@H](O)[C@H]1C(=O)N2C(C(=O)O)=C(c3cc(C(=N)N)c4oc5ccccc5c4c3)C[C@H]12 | 1
C[C@@H](O)[C@H]1C(=O)N2C(C(=O)O)=C(c3cc(C(=N)N(C)C)c4oc5ccccc5c4c3)C[C@H]12 | 4
C[C@@H](O)[C@H]1C(=O)N2C(C(=O)O)=C(c3ccc4oc5ccccc5c4c3)C[C@H]12 | 4
CNC(=N)c1cc(C2=C(C(=O)O)N3C(=O)[C@H]([C@@H](C)O)[C@H]3C2)cc2c1oc1ccccc12 | 2
C[C@@H](O)[C@H]1C(=O)N2C(C(=O)O)=C(c3cc(C4=NCCCN4)c4oc5ccccc5c4c3)C[C@H]12 | 2

Give a short answer stating reported MIC50 for `C[C@@H](O)[C@H]1C(=O)N2C(C(=O)[O-])=C(c3cc(C4=[N+](C)CCN4C)c4oc5ccccc5c4c3)C[C@H]12` .
16

Give a short answer stating reported MIC50 for `C[C@@H](O)[C@H]1C(=O)N2C(C(=O)[O-])=C(c3cc(-c4n(C)cc[n+]4C)c4oc5ccccc5c4c3)C[C@H]12` .
8
